# System: Ganoderma boninense
# ASSAY OVERVIEW: Microtiter plate growth test of Ganoderma boninense mycelium in potato-dextrose broth, absorption by photometer
# Format: cell-based
# MEASUREMENT PARAMETERS: verbal assessment of the EC50 data
QUANTITY MEASURED: efficacy in controlling basal stem rot (BSR) disease, in words

OC(Cc1ccccc1Cl)(Cn1nc[nH]c1=S)C1(Cl)CC1 (stereo not drawn) [Prothioconazole] :: best activity
CC(C)(C)C(O)C(Oc1ccc(Cl)cc1)n1cncn1 (stereo not drawn) [Triadimenol] :: similarly effective
CC(C)(C)C(O)C(Oc1ccc(-c2ccccc2)cc1)n1cncn1 (stereo not drawn) [Bitertanol] :: similarly effective
CC(C)(C)C(O)(CCc1ccc(Cl)cc1)Cn1cncn1 (stereo not drawn) [Tebuconazole] :: best activity
